species: Homo sapiens; assay: Concentration required to inhibit TNF-alpha production was determined in human whole blood; type: functional
reported metric: pIC50
Notebook: values listed as pIC50 are -log10 of the concentration (mol/L).

Worked cases, pIC50 given:
Cc1ccc(NC(=O)c2ccnc(N3CCOCC3)c2)cc1Nc1ccnc(OCC(C)(C)CN(C)C)n1 : 5.43
CCCN1CCC(Oc2nccc(Nc3cc(NC(=O)c4ccnc(N5CCOCC5)c4)ccc3C)n2)CC1 : 6.39
CCN(CC)CCCNc1cc(Nc2cc(NC(=O)c3ccnc(N4CCOCC4)c3)ccc2C)ncn1 : 4.64
Cc1ccc(NC(=O)c2ccnc(N3CCOCC3)c2)cc1Nc1ccnc(N(C)C2CCN(C)CC2)n1 : 5.28
Cc1ccc(NC(=O)c2ccnc(N3CCOCC3)c2)cc1Nc1ccnc(Cl)n1 : 4.96

Request: Dear colleague, please send me the reported pIC50 for `Cc1ccc(NC(=O)c2ccnc(N3CCOCC3)c2)cc1Nc1ccnc(NCCCN2CCCC2)n1` when you can.
Response: 4.80

Request: Check the records and state pIC50 for `COc1cc2ncnc(Nc3cc(NC(=O)c4ccnc(N5CCOCC5)c4)ccc3C)c2cc1OCCN(C)C`
Response: 5.16

Request: Report pIC50 for `COc1cc2ncnc(Nc3cc(NC(=O)c4ccccc4)ccc3C)c2cc1OC`
Response: 4.68

Request: Please report the measured pIC50 for `CSc1nccc(Nc2cc(NC(=O)c3cc(F)cc(N4CCOCC4)c3)ccc2C)n1`
Response: 5.47

Request: Quick one: give measured pIC50 for `COc1cc2ncnc(Nc3cc(NC(=O)c4cccc(N5CCOCC5)c4)ccc3C)c2cc1OC`
Response: 4.80

Request: Look up and state reported pIC50 for `COc1cc2ncnc(Nc3cc(NC(=O)c4cccc(N(C)C)c4)ccc3C)c2cc1OC`
Response: 4.46
